Target: MyD88^TIR (Homo sapiens)
Construct: MyD88 (residues 148–296); 6xHis; made in house; host or cells: E. coli BL21 (DE3)
Sequence (Q99836 148-296): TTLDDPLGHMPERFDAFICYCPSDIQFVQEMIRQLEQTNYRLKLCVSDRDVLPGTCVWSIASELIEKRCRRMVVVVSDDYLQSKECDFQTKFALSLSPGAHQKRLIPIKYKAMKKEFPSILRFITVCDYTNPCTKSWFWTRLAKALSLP
Test: T‐Surf phage library (P8 and P3) selection against MyD88^TIR, four rounds, NGS read counts
Type: binding
Details: P3_MyD88: rank by count after grouping
RESULT TYPE: Rank (after)

Previously resolved entries follow.
Exercise: Which value of Rank (after) has been reported for `LKVESCRQALEKTGKL` in the records?
Solution: 181

Exercise: What does the record list as Rank (after) for `MNWCMCGAAKRIAWW` ?
Solution: 170

I. NQWPNALTAAANLRGW
II. YTALTNRGFHTFLDND
Exercise: Two entries are listed, I and II . Which one carries the higher Rank (after)? Write the label of whichever entry you select.
Solution: II
(II: 479, I: 132)
